Data origin: PubChem BioAssay (NCATS)

Biological target: Thyroid hormone receptor beta (Homo sapiens) (UniProt P10828)
Sequence (P10828 whole entry, looked up): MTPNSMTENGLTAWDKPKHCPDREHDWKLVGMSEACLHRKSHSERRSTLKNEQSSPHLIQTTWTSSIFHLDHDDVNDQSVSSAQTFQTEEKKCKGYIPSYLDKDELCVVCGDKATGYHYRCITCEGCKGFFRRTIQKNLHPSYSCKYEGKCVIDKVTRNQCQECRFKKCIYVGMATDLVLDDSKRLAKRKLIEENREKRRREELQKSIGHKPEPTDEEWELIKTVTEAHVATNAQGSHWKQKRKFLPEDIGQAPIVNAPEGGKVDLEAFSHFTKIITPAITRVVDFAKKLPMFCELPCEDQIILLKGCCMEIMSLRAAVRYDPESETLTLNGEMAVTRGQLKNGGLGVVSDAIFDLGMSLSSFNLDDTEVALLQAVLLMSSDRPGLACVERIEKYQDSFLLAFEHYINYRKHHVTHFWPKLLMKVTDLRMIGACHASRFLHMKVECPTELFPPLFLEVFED
Assay: qHTS assay for small molecule antagonists of thyroid hormone receptor beta signaling (AID 588547);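 also: cells stimulated with 0.4 nM T3 agonist during compound exposure; series mostly up to about 77 µM; % is scaled to controls: 0 for no effect and ±100 for the full control effect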
Conditions: TR-UAS-bla HEK293, beta-lactamase ratio, antagonist mode, 18 h
Results filed as inconclusive are left out. The source made the active and inactive calls. Calls follow the shape of the dose curve; as a rule, active = well fitted inhibition curve with a large enough effect in the signal ratio, with a control signal flat (not every such curve was filed as active); inconclusive = small, poorly fitted or top-dose-only effect, or effect the other way, or a change in a side signal; inactive = flat fitted curve, though single readings scatter; the % refers to the signal ratio.
Endpoint label: activity change % (negative = inhibition)

Query: Short answer please: activity change % (negative = inhibition), Thyroid hormone receptor beta (Homo sapiens) (UniProt P10828), entry `CCCCOCN(C(=O)CCl)c1c(CC)cccc1CC`
Response: -14.9% (inactive)

More entries:
Query: Short answer please: activity change % (negative = inhibition), Thyroid hormone receptor beta (Homo sapiens) (UniProt P10828), entry `COP(=S)(OC)Oc1ccc([N+](=O)[O-])c(C)c1`
Response: 7.88% (inactive)

Query: Short answer please: activity change % (negative = inhibition), Thyroid hormone receptor beta (Homo sapiens) (UniProt P10828), entry O=C(NC(=O)c1c(F)cccc1F)Nc1ccc(OC(F)(F)C(F)OC(F)(F)F)c(Cl)c1 (stereo unspecified)
Response: 12.3% (inactive)

Query: Short answer please: activity change % (negative = inhibition), Thyroid hormone receptor beta (Homo sapiens) (UniProt P10828), entry CN/C(=N/[N+](=O)[O-])NCC1CCOC1 (stereo unspecified)
Response: -1.83% (inactive)

Query: Short answer please: activity change % (negative = inhibition), Thyroid hormone receptor beta (Homo sapiens) (UniProt P10828), entry `CC1(C)[C@H](C(=O)O[C@H](C#N)c2cccc(Oc3ccccc3)c2)[C@@H]1/C=C(\Cl)C(F)(F)F`
Response: 3.81% (inactive)

Query: Short answer please: activity change % (negative = inhibition), Thyroid hormone receptor beta (Homo sapiens) (UniProt P10828), entry FC(F)C(F)(F)OCC(Cn1cncn1)c1ccc(Cl)cc1Cl (stereo unspecified)
Response: -17.9% (inactive)
